Where do the numbers come from? From the NIST ThermoML archive (doi:10.1016/j.jct.2016.08.008).

- assay_method_text: activity coefficient (dimensionless); of the first substance listed, at infinite dilution; xn = mol fraction of the nth substance listed
- condition_description: 368.15 K; 101.33 kPa; Liquid; Chromatography; x1 = 0
Could you please report measured activity coefficient for the items listed next?
Number, no unit, nothing else.

Query: Which activity coefficient value belongs to CCCOCCC [dipropyl ether] + CCCCCCCCCCCCn1cc[n+](C)c1.O=S(=O)([N-]S(=O)(=O)C(F)(F)F)C(F)(F)F ?
Reply: 1.94

Query: Which activity coefficient value belongs to CCC(C)(C)C [2,2-dimethylbutane] + CCCCCCCCCCCCn1cc[n+](C)c1.O=S(=O)([N-]S(=O)(=O)C(F)(F)F)C(F)(F)F ?
Reply: 3.1

Query: Which activity coefficient value belongs to CCC(=O)CC [pentan-3-one] + CCCCCCCCCCCCn1cc[n+](C)c1.O=S(=O)([N-]S(=O)(=O)C(F)(F)F)C(F)(F)F ?
Reply: 0.546

Query: Which activity coefficient value belongs to Cc1cccc(C)c1 [1,3-dimethylbenzene] + CCCCCCCCCCCCn1cc[n+](C)c1.O=S(=O)([N-]S(=O)(=O)C(F)(F)F)C(F)(F)F ?
Reply: 1.09

Query: Which activity coefficient value belongs to CCC(=O)OC [methyl propanoate] + CCCCCCCCCCCCn1cc[n+](C)c1.O=S(=O)([N-]S(=O)(=O)C(F)(F)F)C(F)(F)F ?
Reply: 0.659

Query: Which activity coefficient value belongs to Cc1ccccc1 [toluene] + CCCCCCCCCCCCn1cc[n+](C)c1.O=S(=O)([N-]S(=O)(=O)C(F)(F)F)C(F)(F)F ?
Reply: 0.864

###

- assay_method_text: activity coefficient (dimensionless); of the first substance listed, at infinite dilution; xn = mol fraction of the nth substance listed
- condition_description: 358.15 K; 101.33 kPa; Liquid; Chromatography; x1 = 0
Lab note: anything with activity coefficient at or over 1 counts as class 1; the rest go in class 0.

Query: Quick check, activity coefficient >= 1? CCCCCC [hexane] + CCCCCCCCCCCCn1cc[n+](C)c1.O=S(=O)([N-]S(=O)(=O)C(F)(F)F)C(F)(F)F
Reply: class 1

Query: Quick check, activity coefficient >= 1? C1COCCO1 [1,4-dioxane] + CCCCCCCCCCCCn1cc[n+](C)c1.O=S(=O)([N-]S(=O)(=O)C(F)(F)F)C(F)(F)F
Reply: class 0

Query: Quick check, activity coefficient >= 1? CC(C)OC(C)C [diisopropyl ether] + CCCCCCCCCCCCn1cc[n+](C)c1.O=S(=O)([N-]S(=O)(=O)C(F)(F)F)C(F)(F)F
Reply: class 1

Query: Quick check, activity coefficient >= 1? CC(C)CO [2-methyl-1-propanol] + CCCCCCCCCCCCn1cc[n+](C)c1.O=S(=O)([N-]S(=O)(=O)C(F)(F)F)C(F)(F)F
Reply: class 1

Query: Quick check, activity coefficient >= 1? CCCOCCC [dipropyl ether] + CCCCCCCCCCCCn1cc[n+](C)c1.O=S(=O)([N-]S(=O)(=O)C(F)(F)F)C(F)(F)F
Reply: class 1

Query: Quick check, activity coefficient >= 1? c1ccsc1 [thiophene] + CCCCCCCCCCCCn1cc[n+](C)c1.O=S(=O)([N-]S(=O)(=O)C(F)(F)F)C(F)(F)F
Reply: class 0

Query: Quick check, activity coefficient >= 1? CCCc1ccccc1 [propylbenzene] + CCCCCCCCCCCCn1cc[n+](C)c1.O=S(=O)([N-]S(=O)(=O)C(F)(F)F)C(F)(F)F
Reply: class 1
